Avg % Deletion listing for selected sequences.
Tested on: TTR
Test: TTR editing in HEK293_Cas9 cells transfected with dgRNAs (Table 4)
Type: cell-based, human
Settings: HEK293_Cas9 cells (constitutively express Spy Cas9) transfected with dgRNAs

| monomer.sequence | Avg % Deletion |
| --- | --- |
| GCCGUGGUGGAAUAGGAGUA (tested as dual guide RNA, chemistry not given here) [CR003387] | 16.92% |
| ACACAAAUACCAGUCCAGCA (tested as dual guide RNA, chemistry not given here) [CR003339] | 6.98% |
| CUUCUCUACACCCAGGGCAC (tested as dual guide RNA, chemistry not given here) [CR003342] | 35.38% |
| GGGGCUCAGCAGGGCGGCAA (tested as dual guide RNA, chemistry not given here) [CR003381] | 18.23% |
| AUAGGAGUAGGGGCUCAGCA (tested as dual guide RNA, chemistry not given here) [CR003383] | 15.35% |
| AUUGGUGACGACAGCCGUGG (tested as dual guide RNA, chemistry not given here) [CR003389] | 23.87% |
| AAUGGUGUAGCGGCGGGGGC (tested as dual guide RNA, chemistry not given here) [CR003375] | 10.85% |
| CCGUGGUGGAAUAGGAGUAG (tested as dual guide RNA, chemistry not given here) [CR003386] | 30.18% |
